Test system: E. coli (Ec, ATCC 25922)
Test: microbe, parasite or virus in culture
Format: cell-based, Escherichia coli
Settings: ATCC 25922, 24 h
Where a SMILES comes first, the peptide text is derived from it. Bridges are numbered along the chain shown (N, C = ends). The star is where a group is joined. Lauroyl = CCCCCCCCCCCC(=O)*; Decanoyl = CCCCCCCCCC(=O)*; Octanoyl = CCCCCCCC(=O)*
Listing: Antimicrobial Activity (MIC) Gram − Ec of selected compounds

{"compound": "CC(C)C[C@H](NC(=O)[C@H](CCCNC(=N)N)NC(=O)[C@@H]1CSSC[C@H](N)C(=O)NCC(=O)N[C@@H](CCCNC(=N)N)C(=O)N[C@@H](CCCNC(=N)N)C(=O)N[C@@H](Cc2c[nH]c3ccccc23)C(=O)N[C@@H](Cc2c[nH]c3ccccc23)C(=O)NCC(=O)N[C@@H](Cc2c[nH]c3ccccc23)C(=O)N[C@@H](CCCNC(=N)N)C(=O)N1)C(N)=O [cTurg-5] (H-CGRRWWGWRCRL-NH2; disulfide 1-10; N-terminus assumed)", "endpointUnit": "µg/mL", "signQualifier": "=", "Antimicrobial Activity (MIC) Gram − Ec": 8}
{"compound": "CCCCCCCCCC(=O)N[C@@H](CS)C(=O)NCC(=O)N[C@@H](CCCCN)C(=O)N[C@@H](CCCCN)C(=O)N1CCC[C@H]1C(=O)NCC(=O)NCC(=O)N[C@@H](Cc1c[nH]c2ccccc12)C(=O)N[C@@H](CCCCN)C(=O)N[C@@H](CS)C(=O)N[C@@H](CCCCN)C(=O)N[C@@H](CC(C)C)C(N)=O [Peptide C10-Turg-1, C10- CGKKPGGWKC KL-NH2] (Decanoyl-CGKKPGGWKCKL-NH2)", "endpointUnit": "µg/mL", "signQualifier": "=", "Antimicrobial Activity (MIC) Gram − Ec": 16}
{"compound": "CCCCCCCCCCCC(=O)N[C@H]1CSSC[C@@H](C(=O)N[C@@H](CCCCN)C(=O)N[C@@H](CC(C)C)C(N)=O)NC(=O)[C@H](CCCCN)NC(=O)[C@H](Cc2c[nH]c3ccccc23)NC(=O)CNC(=O)CNC(=O)[C@@H]2CCCN2C(=O)[C@H](CCCCN)NC(=O)[C@H](CCCCN)NC(=O)CNC1=O [Peptide C12-cTurg-1, C12 -(CGKKPGGWKC)KL-NH2] (Lauroyl-CGKKPGGWKCKL-NH2; disulfide 1-10)", "endpointUnit": "µg/mL", "signQualifier": "=", "Antimicrobial Activity (MIC) Gram − Ec": 4}
{"compound": "CCCCCCCCCCCC(=O)N[C@@H](CS)C(=O)NCC(=O)N[C@@H](CCCCN)C(=O)N[C@@H](CCCCN)C(=O)N1CCC[C@H]1C(=O)NCC(=O)NCC(=O)N[C@@H](Cc1c[nH]c2ccccc12)C(=O)N[C@@H](CCCCN)C(=O)N[C@@H](CS)C(=O)N[C@@H](CCCCN)C(=O)N[C@@H](CC(C)C)C(N)=O [Peptide C12-Turg-1, C12- CGKKPGGWKC KL-NH2] (Lauroyl-CGKKPGGWKCKL-NH2)", "endpointUnit": "µg/mL", "signQualifier": "=", "Antimicrobial Activity (MIC) Gram − Ec": 8}
{"compound": "CCCCCCCC(=O)N[C@@H](CS)C(=O)NCC(=O)N[C@@H](CCCCN)C(=O)N[C@@H](CCCCN)C(=O)N1CCC[C@H]1C(=O)NCC(=O)NCC(=O)N[C@@H](Cc1c[nH]c2ccccc12)C(=O)N[C@@H](CCCCN)C(=O)N[C@@H](CS)C(=O)N[C@@H](CCCCN)C(=O)N[C@@H](CC(C)C)C(N)=O [Peptide C8-Turg-1, C8- CGKKPGGWKC KL-NH2] (Octanoyl-CGKKPGGWKCKL-NH2)", "endpointUnit": "µg/mL", "signQualifier": "=", "Antimicrobial Activity (MIC) Gram − Ec": 32}
{"compound": "CCCCCCCCCC(=O)N[C@H]1CSSC[C@@H](C(=O)N[C@@H](CCCCN)C(=O)N[C@@H](CC(C)C)C(N)=O)NC(=O)[C@H](CCCCN)NC(=O)[C@H](Cc2c[nH]c3ccccc23)NC(=O)CNC(=O)CNC(=O)[C@@H]2CCCN2C(=O)[C@H](CCCCN)NC(=O)[C@H](CCCCN)NC(=O)CNC1=O [Peptide C10-cTurg-1, C10 -(CGKKPGGWKC)KL-NH2] (Decanoyl-CGKKPGGWKCKL-NH2; disulfide 1-10)", "endpointUnit": "µg/mL", "signQualifier": "=", "Antimicrobial Activity (MIC) Gram − Ec": 8}
{"compound": "CCCCCCCC(=O)N[C@H]1CSSC[C@@H](C(=O)N[C@@H](CCCNC(=N)N)C(=O)N[C@@H](CC(C)C)C(N)=O)NC(=O)[C@H](CCCNC(=N)N)NC(=O)[C@H](Cc2c[nH]c3ccccc23)NC(=O)[C@H](Cc2c[nH]c3ccccc23)NC(=O)CNC(=O)[C@H](Cc2c[nH]c3ccccc23)NC(=O)[C@H](CCCNC(=N)N)NC(=O)[C@H](CCCNC(=N)N)NC(=O)CNC1=O [Peptide C8-cTurg-6, C8- (CGRRWGWWRC)RL-NH2] (Octanoyl-CGRRWGWWRCRL-NH2; disulfide 1-10)", "endpointUnit": "µg/mL", "signQualifier": "=", "Antimicrobial Activity (MIC) Gram − Ec": 8}
{"compound": "CCCCCCCC(=O)N[C@@H](CS)C(=O)NCC(=O)N[C@@H](CCCCN)C(=O)N[C@@H](CCCCN)C(=O)N[C@@H](Cc1c[nH]c2ccccc12)C(=O)N[C@@H](Cc1c[nH]c2ccccc12)C(=O)NCC(=O)N[C@@H](Cc1c[nH]c2ccccc12)C(=O)N[C@@H](CCCCN)C(=O)N[C@@H](CS)C(=O)N[C@@H](CCCCN)C(=O)N[C@@H](CC(C)C)C(N)=O [Peptide C8-Turg-2, C8- CGKKWWGWKC KL-NH2] (Octanoyl-CGKKWWGWKCKL-NH2)", "endpointUnit": "µg/mL", "signQualifier": "=", "Antimicrobial Activity (MIC) Gram − Ec": 16}
{"compound": "CC(C)C[C@H](NC(=O)[C@H](CCCCN)NC(=O)[C@@H]1CSSC[C@H](N)C(=O)NCC(=O)N[C@@H](CCCCN)C(=O)N[C@@H](CCCCN)C(=O)N2CCC[C@H]2C(=O)NCC(=O)NCC(=O)N[C@@H](Cc2c[nH]c3ccccc23)C(=O)N[C@@H](CCCCN)C(=O)N1)C(N)=O [cTurg-1] (H-CGKKPGGWKCKL-NH2; disulfide 1-10; N-terminus assumed)", "endpointUnit": "µg/mL", "signQualifier": ">", "Antimicrobial Activity (MIC) Gram − Ec": 256}
{"compound": "CC(C)C[C@H](NC(=O)[C@H](CCCCN)NC(=O)[C@@H]1CSSC[C@H](N)C(=O)NCC(=O)N[C@@H](CCCCN)C(=O)N[C@@H](CCCCN)C(=O)N[C@@H](Cc2c[nH]c3ccccc23)C(=O)N[C@@H](Cc2c[nH]c3ccccc23)C(=O)NCC(=O)N[C@@H](Cc2c[nH]c3ccccc23)C(=O)N[C@@H](CCCCN)C(=O)N1)C(N)=O [cTurg-2] (H-CGKKWWGWKCKL-NH2; disulfide 1-10; N-terminus assumed)", "endpointUnit": "µg/mL", "signQualifier": "=", "Antimicrobial Activity (MIC) Gram − Ec": 64}
{"compound": "CC(C)C[C@H](NC(=O)[C@H](CCCCN)NC(=O)[C@@H]1CSSC[C@H](N)C(=O)NCC(=O)N[C@@H](CCCCN)C(=O)N[C@@H](CCCCN)C(=O)N2CCC[C@H]2C(=O)N[C@@H](Cc2c[nH]c3ccccc23)C(=O)N[C@@H](Cc2c[nH]c3ccccc23)C(=O)N[C@@H](Cc2c[nH]c3ccccc23)C(=O)N[C@@H](CCCCN)C(=O)N1)C(N)=O [cTurg-4] (H-CGKKPWWWKCKL-NH2; disulfide 1-10; N-terminus assumed)", "endpointUnit": "µg/mL", "signQualifier": "=", "Antimicrobial Activity (MIC) Gram − Ec": 64}
